Target Desc: T1, human CD3 expressed on cells (Jurkat cells; human primary T cells) (human, UniProt P07766 23-207; P04234 22-171; P09693 23-182)
T1 construct: whole, on cells
T1 sequence (P07766 23-207, chain 1 of 3): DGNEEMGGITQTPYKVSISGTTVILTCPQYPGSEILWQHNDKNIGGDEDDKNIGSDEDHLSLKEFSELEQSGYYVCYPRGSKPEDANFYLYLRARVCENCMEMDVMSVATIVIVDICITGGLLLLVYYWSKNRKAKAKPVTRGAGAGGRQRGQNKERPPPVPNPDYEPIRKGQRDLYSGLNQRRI
T1 sequence (P04234 22-171, chain 2 of 3): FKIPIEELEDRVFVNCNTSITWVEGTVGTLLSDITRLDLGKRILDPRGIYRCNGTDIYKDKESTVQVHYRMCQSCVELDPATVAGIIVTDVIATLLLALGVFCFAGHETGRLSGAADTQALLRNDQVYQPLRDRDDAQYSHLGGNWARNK
T1 sequence (P09693 23-182, chain 3 of 3): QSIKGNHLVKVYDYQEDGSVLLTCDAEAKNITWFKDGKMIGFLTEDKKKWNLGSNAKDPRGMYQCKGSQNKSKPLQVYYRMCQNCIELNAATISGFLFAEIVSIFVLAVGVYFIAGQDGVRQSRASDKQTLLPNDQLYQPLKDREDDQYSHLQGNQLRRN
Procedure Text: flow cytometry, 25 nM, Jurkat cells
Description: Purified antibodies were confirmed to bind CD3 expressed on cells using the CytoFLEX S or LX flow cytometers (Beckman Coulter). Antibodies were diluted to 25 nM in FACS buffer (PBS+2% FBS) and were incubated with CD3-expressing cells for 30 minutes at 4° C. […] The median fluorescence intensity of the binding signal for each antibody was normalized to the isotype control to obtain a fold over isotype value. An antibody with a fold over isotype (FOI) of ≥10 was considered to be positive for binding.
The entries below are paired with their reported Binding (FOI).
The reply should be a number in FOI, with the unit left off.

mAb 273 (antibody, V domains shown, VH/VL only) VH: EVQLVESGGGLVQPGESLKLSCTASGFTFSVSAIHWVRQASGKGLEWVGRIRSKANSYATAYVASVKGRFTLSRDDSKNTAYLQMNSLKTEDTAVYYCSSYYFVSGTYYNHWGQGTLVTVSS VL: DIQMTQSPSSLSASVGDRVTITCRASQGIRYDLGWYQQKPGRAPKRLIHSVSSLQSGVPSRFSGSGSGTEFTLTISSLQPEDFATYYCLQHNVNPCTFGQGTKLEIK :: 53.1
mAb 251 (antibody, V domains shown, VH/VL only) VH: EVQILESGGGLVQPGGSLRLSCVASGFTFRSYVMSWVRRAPGRGLEWVSGISASGGNTYYADSVKGRFTISRDNSKNTLFLQMNGLRAEDTAVYYCAKLFSYYYYFMDVWGKGTTVTVSS VL: SYELTQPLSVSVALGQTARITCGGNNIGSKDVHWYQQKPGQAPVLVIYRDSNRPSGIPERFSGSNSGNTATLTISGAQAGDEADYYCQVWDRRTAVFGGGTQLTAL :: 215

Consider the additional binder presented here.
// lookup Binding (FOI) for mAb 171 (antibody, V domains shown, VH/VL only) VH: EVQLVESGGGLVQPGRSLRLSCAASGFTFADYTMHWVRQAPGQGLEWVSGISWNSGSIDYADSVKGRFIISRDNAKKTLYLQMNSLRAEDTALYYCAKDSSGYGHYYFYYLDVWGKGTTVTVSS VL: EIVMTQSPATLSVSPGERATLSCRASQSVSSNLAWYQQKPGQAPRLLIYSTSTRATGIPARFSGSRSGTEFTLTISSLQSEDSAVYYCQQYNNWPHFGQGTRLEIK 108
